B1: FAM50A (parent)
chain: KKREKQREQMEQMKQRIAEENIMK

# Variants of: B1
# PROCEDURE_SUMMARY: protein stability index of a GFP-peptide fusion (GPS, HEK-293T) (PSI 1-6); higher = more stable;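 note: lentivirally expressed fusions sorted by FACS into six bins by GFP to DsRed ratio, PSI derived from sequencing read proportions per bin multiplied by bin number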
# CONDITION: c terminus: a fixed tail appended
OBSERVATION_TYPE: protein stability index
Could you keep your reply to the number by itself?

Guide cases for protein stability index, answers given:
mutation_code=E19Y test_value=4.38
mutation_code=K5V test_value=4.96
mutation_code=Q12H test_value=4.58

## Input Indicate the recorded protein stability index value for this variant: I22Q
## Output 4.75

## Input Please indicate protein stability index recorded for M23L
## Output 4.49

## Input Give the value of protein stability index reported for the following: R3P
## Output 5.26

## Input Report measured protein stability index; entry is K24M
## Output 5.03

## Input Provide one value: measured protein stability index of E8V
## Output 4.37
